- TESTED_ON: HLA-B*08:01 (recombinant MHC class I molecule) (human)
- ASSAY_NOTES: REVEAL MHC-peptide binding assay, recombinant HLA-B*08:01
- ASSAY_SETUP: remark: other sources report otherwise
For each record, check the reported In Vitro Score (score, % of positive control peptide): if it is below 0.3 write 1, else write -1.

input: Input `WVKRGNKKL` ; condition: In Vitro Score (score, % of positive control peptide) strictly below 0.3. Does it hold?
output: -1

input: Next up: `WVKRGHKKL`
output: -1

input: Same question for `IIFWVLRGR` please.
output: -1

input: Now consider `IFWVQRGAK` and answer again.
output: 1

input: Note, next up: `IFWVKRGHK`
output: -1

input: Further, for `IFWVQRGNK` ?
output: 1

input: Also, `VAFIIFWVS` please.
output: 1
